- TEST SUMMARY: Bidirectional transport (Papp) across Caco-2 monolayers on 24-well inserts, 21 days
- TEST CONDITIONS: human, Caco-2, pH 7.4
Below: a set of entries, each annotated with reported Papp A→B at 1 h.

MOLECULE	Papp A→B at 1 h
OC[C@@H](O)[C@@H](O)[C@H](O)[C@H](O)CO [mannitol, Mannitol D-[1-14C]]	0.26 ×10⁻⁶ cm/s
COC(=O)c1ccccc1-c1c2ccc(=N)cc-2oc2cc(N)ccc12 [R123, rhodamine 123]	1.51 ×10⁻⁶ cm/s

In the following, a different molecule is considered.
Task item: Item COc1cccc2c1C(=O)c1c(O)c3c(c(O)c1C2=O)C[C@@](O)(C(=O)CO)C[C@@H]3O[C@H]1C[C@H](N)[C@H](O)[C@H](C)O1 [doxorubicin] has what recorded Papp A→B at 1 h?
Reply: 0.36 ×10⁻⁶ cm/s

----------
Below: a set of entries, each annotated with reported efflux ratio at 1 h, 20 µM.
- TEST SUMMARY: Bidirectional transport (Papp) across Caco-2 monolayers on 24-well inserts, 21 days
- TEST CONDITIONS: human, Caco-2, pH 7.4
Lab note: write the figure by itself, no unit.

Task item: Item COc1cccc2c1C(=O)c1c(O)c3c(c(O)c1C2=O)C[C@@](O)(C(=O)CO)C[C@@H]3O[C@H]1C[C@H](N)[C@H](O)[C@H](C)O1 has what recorded efflux ratio at 1 h, 20 µM?
Reply: 21.9

Task item: Item COC(=O)c1ccccc1-c1c2ccc(=N)cc-2oc2cc(N)ccc12 has what recorded efflux ratio at 1 h, 20 µM?
Reply: 5.96

----------
- Test system: P-gp/BCRP
- TEST SUMMARY: Caco-2 pump out assay, rhodamine 123 excretion;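 further: Caco-2 cells loaded 120 min with 10 µM rhodamine 123, then dye efflux read by fluorescence at 37 °C every 2 min for 1 h, Kout as slope, compared against compound-free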
- TEST CONDITIONS: Kout R123 96-well / 384-well
Below: a set of entries, each annotated with reported Ratio Kout 96/384 wells, P-gp/BCRP.
Lab note: write the figure by itself, no unit.

Examples with answers:
MOLECULE	Ratio Kout 96/384 wells, P-gp/BCRP
CC[C@]1(O)C[C@@H]2CN(CCc3c([nH]c4ccccc34)[C@@](C(=O)OC)(c3cc4c(cc3OC)N(C)[C@H]3[C@@](O)(C(=O)OC)[C@H](OC(C)=O)[C@]5(CC)C=CCN6CC[C@]43[C@@H]65)C2)C1 [vinblastine]	0.99
COc1cccc2c1C(=O)c1c(O)c3c(c(O)c1C2=O)C[C@@](O)(C(=O)CO)C[C@@H]3O[C@H]1C[C@H](N)[C@H](O)[C@H](C)O1 [doxorubicin]	1.03
CCC1(c2ccccc2)C(=O)NC(=O)NC1=O [phenobarbital]	1.09
CO[C@H]1/C=C/O[C@@]2(C)Oc3c(C)c(O)c4c(O)c(c(/C=N/N5CCN(C)CC5)c(O)c4c3C2=O)NC(=O)/C(C)=C\C=C\[C@H](C)[C@H](O)[C@@H](C)[C@@H](O)[C@@H](C)[C@H](OC(C)=O)[C@@H]1C [rifampicin]	1.12
CC(=O)Nc1ccc(O)cc1 [acetanomiphen]	1.08

Task item: Item CN(C)C(=O)CCSC(SCCC(=O)O)c1cccc(C=Cc2ccc3ccc(Cl)cc3n2)c1 (centres unmarked) [MK571] has what recorded Ratio Kout 96/384 wells, P-gp/BCRP?
Reply: 1.19

Task item: Item CN(C)C(=O)C(CCN1CCC(O)(c2ccc(Cl)cc2)CC1)(c1ccccc1)c1ccccc1 [loperamide] has what recorded Ratio Kout 96/384 wells, P-gp/BCRP?
Reply: 1.01

Task item: Item COc1cc2c(cc1OC)CN(CCc1ccc(NC(=O)c3cccc4c(=O)c5cccc(OC)c5[nH]c34)cc1)CC2 [elacridar] has what recorded Ratio Kout 96/384 wells, P-gp/BCRP?
Reply: 0.81

----------
- TEST SUMMARY: Bidirectional transport (Papp) across Caco-2 monolayers on 24-well inserts, 21 days
- TEST CONDITIONS: human, Caco-2, pH 7.4
OBSERVABLE: Papp B→A at 1 h (×10⁻⁶ cm/s)
Field format: number, assumed ×10⁻⁶ cm/s, no unit text.

COMPOUND	OBSERVABLE	UNIT ABBREVIATION	OBSERVED VALUE
COc1cccc2c1C(=O)c1c(O)c3c(c(O)c1C2=O)C[C@@](O)(C(=O)CO)C[C@@H]3O[C@H]1C[C@H](N)[C@H](O)[C@H](C)O1 [doxorubicin]	Papp B→A at 1 h	×10⁻⁶ cm/s	7.6
COC(=O)c1ccccc1-c1c2ccc(=N)cc-2oc2cc(N)ccc12 [R123, rhodamine 123]	Papp B→A at 1 h	×10⁻⁶ cm/s	8.94

In the following, a different compound is considered.
Task item: Item OC[C@@H](O)[C@@H](O)[C@H](O)[C@H](O)CO [mannitol, Mannitol D-[1-14C]] has what recorded Papp B→A at 1 h?
Reply: 0.32
